From: patent US12421216B2

Assignment: determine reported solubility for the given compounds.
Assay: Solubility of salts in water and in 0.2 M phosphate buffer pH 6 at 37° C. after 4 hours (HPLC-DAD)
Assay type: physicochemical
Details: 0.2M phosphate buffer pH 6, 37° C., 4 hours, about 5 mg salt in 1 mL
One number for each entry, in µg/mL.

CN1CC[C@@H](c2c(O)cc(O)c3c(=O)cc(-c4ccc(C(F)(F)F)cc4Cl)oc23)[C@@H]1CO.CN1CC[C@@H](c2c(O)cc(O)c3c(=O)cc(-c4ccc(C(F)(F)F)cc4Cl)oc23)[C@@H]1CO.O=S(=O)(O)c1cccc2c(S(=O)(=O)O)cccc12 = 20

Dear colleague, I am looking for the recorded solubility of the following compound: CN1CC[C@@H](c2c(O)cc(O)c3c(=O)cc(-c4ccc(C(F)(F)F)cc4Cl)oc23)[C@@H]1CO.CN1CC[C@@H](c2c(O)cc(O)c3c(=O)cc(-c4ccc(C(F)(F)F)cc4Cl)oc23)[C@@H]1CO.O.O=C(O)C(=O)O
30

###

Assay: Quantitative solubility determination of voruciclib malonate after the thermocycling experiments (UPLC)
Type: physicochemical
Details: ethanol, organic solvent or mixture, thermodynamic from solid, Ethanol, read-out: Solubility
Metric: solubility (mg/mL)
Give bare numbers, in mg/mL.

Dear colleague, I am looking for the recorded solubility of the following compound: CN1CC[C@H](c2c(O)cc(O)c3c(=O)cc(-c4ccc(C(F)(F)F)cc4Cl)oc23)[C@H]1CO (stereo in doubt) [voruciclib malonate]
13.6

###

Assay: Thermodynamic solubility of voruciclib HCl by the shake-flask method (HPLC)
Assay type: physicochemical
Conditions: n-heptane, organic solvent or mixture, thermodynamic from solid, n-Heptane; RT, 24 h, amorphous API, HPLC; read-out: Solubility
Structures can show the parent of a compound that is named as a salt.
Metric: solubility at 24 h

Dear colleague, I am looking for the recorded solubility at 24 h of the following molecule: CN1CC[C@@H](c2c(O)cc(O)c3c(=O)cc(-c4ccc(C(F)(F)F)cc4Cl)oc23)[C@@H]1CO [voruciclib HCl]
< 100 µg/mL

###

Experiment: Physical stability upon exposure to accelerated aging conditions (AAC, 40° C./75% RH), re-analysis by HT-XRPD
Type: physicochemical
Conditions: precipitated solids of the salt screen, dried under vacuum at 50° C.; 40° C./75% RH for 2 days; HT-XRPD
Metric: Solid phase AAC (XRPD form after accelerated aging)

CN1CCC(c2c(O)cc(O)c3c(=O)cc(-c4ccc(C(F)(F)F)cc4Cl)oc23)C1CO.CN1CCC(c2c(O)cc(O)c3c(=O)cc(-c4ccc(C(F)(F)F)cc4Cl)oc23)C1CO.O=C(OC(C(=O)O)C(OC(=O)c1ccccc1)C(=O)O)c1ccccc1 (centres unmarked) [DiTr1] = DiTr1
N[C@@H](CCC(=O)O)C(=O)O [Glm0] = Glm0
CN1CC[C@@H](c2c(O)cc(O)c3c(=O)cc(-c4ccc(C(F)(F)F)cc4Cl)oc23)[C@@H]1CO.CN1CC[C@@H](c2c(O)cc(O)c3c(=O)cc(-c4ccc(C(F)(F)F)cc4Cl)oc23)[C@@H]1CO.O=S(=O)(O)c1cccc2c(S(=O)(=O)O)cccc12 [Nds1a] = Nds1a
CN1CCC(c2c(O)cc(O)c3c(=O)cc(-c4ccc(C(F)(F)F)cc4Cl)oc23)C1CO.CN1CCC(c2c(O)cc(O)c3c(=O)cc(-c4ccc(C(F)(F)F)cc4Cl)oc23)C1CO.O=S(=O)(O)O (centres unmarked) [Sul2] = Sul2
CN1CC[C@@H](c2c(O)cc(O)c3c(=O)cc(-c4ccc(C(F)(F)F)cc4Cl)oc23)[C@@H]1CO.O=S(=O)(O)O [Sul1] = Sul1
CN1CCC(c2c(O)cc(O)c3c(=O)cc(-c4ccc(C(F)(F)F)cc4Cl)oc23)C1CO.O=C(O)C=CC(=O)O (centres unmarked) [Fum1] = Fum1
CN1CCC(c2c(O)cc(O)c3c(=O)cc(-c4ccc(C(F)(F)F)cc4Cl)oc23)C1CO.O=P(O)(O)O (centres unmarked) [Pho1] = Pho1

Dear colleague, I am looking for the recorded Solid phase AAC (XRPD form after accelerated aging) of the following compound: CN1CC[C@@H](c2c(O)cc(O)c3c(=O)cc(-c4ccc(C(F)(F)F)cc4Cl)oc23)[C@@H]1CO.CN1CC[C@@H](c2c(O)cc(O)c3c(=O)cc(-c4ccc(C(F)(F)F)cc4Cl)oc23)[C@@H]1CO.O.O=C(O)C(=O)O [Oxa1]
Oxa1
